B1: RTP4 (parent)
chain: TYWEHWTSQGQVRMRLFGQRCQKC

Variants of: B1
method notes: protein stability index of a GFP-peptide fusion (GPS, HEK-293T) (PSI 1-6); higher = more stable;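 note: lentivirally expressed fusions sorted by FACS into six bins by GFP to DsRed ratio, PSI derived from sequencing read proportions per bin multiplied by bin number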
measurement conditions: c terminus: a fixed tail appended
# if value of protein stability index reaches 2, tag Yes; if it stays below, tag No

# var, cat
rows = [
    ("C24N", "Yes"),
    ("Q11G", "Yes"),
    ("C24G", "Yes"),
    ("T1G", "Yes"),
    ("F17K", "No"),
    ("H5A", "Yes"),
    ("V12R", "No"),
    ("R13L", "No"),
    ("V12K", "No"),
    ("H5W", "No"),
    ("S8D", "No"),
    ("H5Q", "Yes"),
    ("E4G", "Yes"),
    ("F17S", "Yes"),
    ("C21G", "Yes"),
    ("T7Y", "No"),
    ("T1A", "No"),
    ("W6L", "No"),
    ("W6A", "Yes"),
    ("Y2M", "Yes"),
]
